assay: Chimpanzee pharmacokinetics, i.v. infusion; assay type: in vivo, chimpanzees; conditions: in vivo, iv; female chimpanzees, single 1 mg/kg i.v. infusion (1 h), plasma, LC-MS/MS, noncompartmental, n = 2; read-out: Vss (volume of distribution at steady state)
Starred links: 1 amine or outer side, 2 acyl side, 3 side chain; linkers in the order of their positions; H or OH if unused. Positions of bridges follow the written chain, without caps; N, C: chain ends. Non-standard residues stand in square brackets, D forms with d. Residues, ends and D or L forms follow the SMILES beside them. *: point of attachment. Orn(4R-OH,5R-OCH2CH2NMe3+) = C[N+](C)(C)CCO[C@@H](N[*:3])[C@H](O)C[C@H](N[*:1])C(=O)[*:2]; pTerphenylCO(4''-OnC5H11) = CCCCCOc1ccc(-c2ccc(-c3ccc(C(=O)*)cc3)cc2)cc1; hTyr(3S-OH,4S-OH) = N[C@H](C(=O)O)[C@H](O)[C@@H](O)c1ccc(O)cc1; Pro(3S-OH,4S-Me) = C[C@H]1CN[C@H](C(=O)O)[C@H]1O; Hyp = O=C(O)[C@@H]1C[C@@H](O)CN1
endpoint: Vd (L/kg)
Reply numerically in L/kg, unit not repeated.

Sure, the documented Vd for CCCCCOc1ccc(-c2ccc(-c3ccc(C(=O)N[C@H]4C[C@@H](O)[C@@H](OCC[N+](C)(C)C)NC(=O)[C@@H]5[C@@H](O)[C@@H](C)CN5C(=O)[C@H]([C@@H](C)O)NC(=O)[C@H]([C@H](O)[C@@H](O)c5ccc(O)cc5)NC(=O)[C@@H]5C[C@@H](O)CN5C(=O)[C@H]([C@@H](C)O)NC4=O)cc3)cc2)cc1 [CD101] ({pTerphenylCO(4''-OnC5H11)}-[Orn(4R-OH,5R-OCH2CH2NMe3+)]T[Hyp][hTyr(3S-OH,4S-OH)]T[Pro(3S-OH,4S-Me)]; lactam 1-C) is 0.4
